Kindly state [35S]GTPγS accumulation IC50, GRO-α for each of the entries shown.
- testTarget: T1, Human CXCR2 (human, UniProt P25025 1-360)
- T1 sequence: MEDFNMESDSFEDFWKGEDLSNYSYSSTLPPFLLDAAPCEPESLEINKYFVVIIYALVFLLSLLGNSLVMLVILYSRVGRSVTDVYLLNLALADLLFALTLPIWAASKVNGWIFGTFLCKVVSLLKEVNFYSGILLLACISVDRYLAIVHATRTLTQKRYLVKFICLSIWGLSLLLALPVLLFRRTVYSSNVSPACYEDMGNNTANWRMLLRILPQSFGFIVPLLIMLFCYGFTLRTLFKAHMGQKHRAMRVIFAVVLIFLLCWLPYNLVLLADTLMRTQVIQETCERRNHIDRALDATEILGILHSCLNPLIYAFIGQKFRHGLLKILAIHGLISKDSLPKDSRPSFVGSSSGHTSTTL
- runDescription: cell-based or functional assay
Field format: number, assumed nM, no unit text.

# input What value of [35S]GTPγS accumulation IC50, GRO-α has been reported for the following binder? CXCR20024 (VHH, not shown: small tags and cut ends) EVQLVESGGGLVQPGGSLRLSCVASGRIFSSNAMGWFRQAPGKEREFVAAITWRSGGSAYYADSAKGRFTISRDNAKNTVYLQMNSLKPEDTAVYYCAAGGSSWLSFPPDYWGQGTQVTVSSGGGGSGGGGSGGGGSGGGGSGGGGSGGGGSGGGGSEVQLVESGGGLVQPGGSLRLSCVASGRIFSSNAMGWFRQAPGKEREFVAAITWRSGGSAYYADSAKGRFTISRDNAKNTVYLQMNSLKPEDTAVYYCAAGGSSWLSFPPDYWGQGTQVTVSS
# output 30.3

# input Find the recorded [35S]GTPγS accumulation IC50, GRO-α belonging to CXCR20022 (VHH, not shown: small tags and cut ends) EVQLVESGGGLVQAGGSLRLSCAASGRTFSDYAMGWFRQAPGKEREFVAAITWNGGRVFYTASVKGRFTISRDNAKNTMYLQMNSLKPEDTAVYYCAADKDRRTDYLGHPVAYWGQGTQVTVSSGGGGSGGGGSGGGGSGGGGSGGGGSGGGGSGGGGSEVQLVESGGGLVQAGGSLRLSCAASGRTFSDYAMGWFRQAPGKEREFVAAITWNGGRVFYTASVKGRFTISRDNAKNTMYLQMNSLKPEDTAVYYCAADKDRRTDYLGHPVAYWGQGTQVTVSS and report it.
# output 28.5
